# assay-explanation: Volume of distribution in ICR mouse at 1 mg/kg, iv measured upto 24 hrs by LC-MS/MS analysis
# Assay type: ADME, organism-based
# condition-notes: in vivo

{"chemical-smiles": "Cc1nc2c(F)cc(-c3nc(Nc4nccc(Sc5cnc(N6CCC7(CC6)CO[C@@H](C)[C@H]7N)cn5)c4Cl)ncc3F)cc2n1C(C)C", "Vd": "2.53 L/kg"}

* * *

# assayed-system: Cyclin-dependent kinase 7/ cyclin H (Homo sapiens)
# Sequence (P51946 whole entry): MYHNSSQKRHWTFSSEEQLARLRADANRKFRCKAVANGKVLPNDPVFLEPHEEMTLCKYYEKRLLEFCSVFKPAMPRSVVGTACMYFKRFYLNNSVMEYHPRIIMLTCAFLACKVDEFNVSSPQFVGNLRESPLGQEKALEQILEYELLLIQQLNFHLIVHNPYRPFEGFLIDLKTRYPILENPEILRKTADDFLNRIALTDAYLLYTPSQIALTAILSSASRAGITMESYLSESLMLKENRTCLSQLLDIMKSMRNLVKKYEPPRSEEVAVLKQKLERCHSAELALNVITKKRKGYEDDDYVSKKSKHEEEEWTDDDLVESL
# Sequence (P50613 whole entry): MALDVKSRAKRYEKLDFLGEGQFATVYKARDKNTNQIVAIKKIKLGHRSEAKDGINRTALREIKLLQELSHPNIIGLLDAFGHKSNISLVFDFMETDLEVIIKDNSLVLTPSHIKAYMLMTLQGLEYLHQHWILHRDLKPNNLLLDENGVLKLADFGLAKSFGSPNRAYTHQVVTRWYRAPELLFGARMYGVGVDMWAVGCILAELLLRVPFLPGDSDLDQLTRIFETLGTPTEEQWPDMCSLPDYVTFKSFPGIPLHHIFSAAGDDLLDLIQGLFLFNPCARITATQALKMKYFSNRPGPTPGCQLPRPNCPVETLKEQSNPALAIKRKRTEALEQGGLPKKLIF
# assay-explanation: Inhibition of CDK7/Cyclin H (unknown origin) incubated for 20 mins followed by [33P]gamma-ATP addition and measured after 2 hrs by radiometric HotSpot Kinase assay
measured-quantity: IC50 (nM)

{"chemical-smiles": "Cc1nc2c(F)cc(-c3nc(Nc4nccc(Sc5cnc(N6CCC7(CC6)CO[C@@H](C)[C@H]7N)cn5)c4Cl)ncc3F)cc2n1C(C)C", "experimental-result": 968}

* * *

# assayed-system: CDK4/Cyclin D3 (Homo sapiens)
# assay-explanation: Inhibition of recombinant N-terminal GST/His6-fusion tagged human CDK4/Cyclin D3 expressed in Sf9 insect cells incubated for 20 mins followed by [33P]gamma-ATP addition and measured after 2 hrs by radiometric HotSpot Kinase assay
pIC50: −log10 of the molar value.
measured-quantity: pIC50

{"chemical-smiles": "Cc1nc2c(F)cc(-c3nc(Nc4nccc(Sc5cnc(N6CCC7(CC6)CO[C@@H](C)[C@H]7N)cn5)c4Cl)ncc3F)cc2n1C(C)C", "experimental-result": 7.74}

* * *

# assay-explanation: Terminal half life in ICR mouse at 1 mg/kg, iv measured upto 24 hrs by LC-MS/MS analysis
# Assay type: ADME, organism-based
# condition-notes: in vivo, read-out: beta t1/2 (converted)
measured-quantity: half-life (h)

{"chemical-smiles": "Cc1nc2c(F)cc(-c3nc(Nc4nccc(Sc5cnc(N6CCC7(CC6)CO[C@@H](C)[C@H]7N)cn5)c4Cl)ncc3F)cc2n1C(C)C", "measured-quantity": "half-life", "experimental-result": 2.11}

* * *

Each entry below carries its recorded IC50.
# assayed-system: CDK4/Cyclin D3 (Homo sapiens, UniProt P11802)
# Sequence (P11802 whole entry, the tested form may be a part): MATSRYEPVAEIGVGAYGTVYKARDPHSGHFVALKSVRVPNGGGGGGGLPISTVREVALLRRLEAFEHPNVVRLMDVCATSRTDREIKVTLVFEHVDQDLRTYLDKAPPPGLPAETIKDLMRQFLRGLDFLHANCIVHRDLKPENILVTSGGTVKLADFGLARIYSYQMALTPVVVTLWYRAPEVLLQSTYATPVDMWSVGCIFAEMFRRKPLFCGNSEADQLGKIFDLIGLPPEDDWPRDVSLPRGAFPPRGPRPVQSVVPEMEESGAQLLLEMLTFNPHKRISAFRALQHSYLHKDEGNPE
# Sequence (P30281 whole entry, further chain, the tested form may be a part): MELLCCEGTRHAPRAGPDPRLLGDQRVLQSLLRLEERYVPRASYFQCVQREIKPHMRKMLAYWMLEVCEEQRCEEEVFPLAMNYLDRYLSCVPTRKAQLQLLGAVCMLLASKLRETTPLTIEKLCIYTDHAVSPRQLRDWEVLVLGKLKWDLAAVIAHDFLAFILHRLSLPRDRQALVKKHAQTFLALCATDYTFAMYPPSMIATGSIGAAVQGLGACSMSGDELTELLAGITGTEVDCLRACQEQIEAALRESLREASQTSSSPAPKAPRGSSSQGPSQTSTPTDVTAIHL
# assay-explanation: Inhibition of recombinant N-terminal GST/His6-fusion tagged human CDK4/Cyclin D3 expressed in Sf9 insect cells using 5-FAM-IPTSPITTTYFFFKKK as substrate preincubated for 10 mins followed by substrate addition and incubated for 3 hrs in presence of ATP by caliper mobility shift analysis
measured-quantity: IC50 (nM)

{"chemical-smiles": "CN(C)C(=O)c1cc2cnc(Nc3nccc(Sc4cnc(N5CCC(C)(N)CC5)cn4)c3Cl)nc2n1C1CCCC1", "experimental-result": 443}
{"chemical-smiles": "Cc1nc2c(F)cc(-c3nc(Nc4ccc(Cl)c(Sc5cnc(N6CCC7(CC6)CO[C@@H](C)[C@H]7N)cn5)n4)ncc3F)cc2n1C(C)C", "experimental-result": 212}
{"chemical-smiles": "CN(C)C(=O)c1cc2cnc(Nc3ccc(Sc4cnc(N5CCC(C)(N)CC5)cn4)c(Cl)n3)nc2n1C1CCCC1", "experimental-result": 51.1}
{"chemical-smiles": "Cc1nc2c(F)cc(-c3nc(Nc4ccc(Sc5cnc(N6CCC7(CC6)CO[C@@H](C)[C@H]7N)cn5)c(Cl)c4)ncc3F)cc2n1C(C)C", "experimental-result": 7}

* * *

# assayed-system: CDK2/Cyclin-E2 (Homo sapiens, UniProt O96020+P24941)
# assay-explanation: Inhibition of recombinant N-terminal GST/His6-fusion tagged human CDK2/Cyclin E2 expressed in Sf9 insect cells incubated for 20 mins followed by [33P]gamma-ATP addition and measured after 2 hrs by radiometric HotSpot Kinase assay

{"chemical-smiles": "Cc1nc2c(F)cc(-c3nc(Nc4nccc(Sc5cnc(N6CCC7(CC6)CO[C@@H](C)[C@H]7N)cn5)c4Cl)ncc3F)cc2n1C(C)C", "IC50 (nM)": 464}
